Where do these numbers come from? They come from patent US9464106B2.

Entries and their measured Observed ratio (log2) with merged LNA block capture probes follow.
- Test system: splice variant #1 and #2 transcripts spiked into C. elegans total RNA
- assay text: Splice variant ratio detection with merged LNA block capture probes (Example 9)
- Format: binding
- measurement conditions: signal ratio KU007/KU008, Cy5, normalized
l = locked nucleic acid (LNA); [5mC] = 5-methylcytosine; d = 2'-deoxy (DNA)
The answer should be written as a number, with no unit following it.

caacactgcccagaggttcaatcGATmCmCgatgatcctaatgaaggcgccc (CAACACTGCCCAGAGGTTCAATCGATCCGATGATCCTAATGAAGGCGCCC; sugars from the 5' end d23 l5 d22, [5mC] at 27, 28, backbone not given here; further chemistry not fully specified) [gene78.m01INS3_50_block]	2.93

Consider the additional substance presented here.
In: Can you share its Observed ratio (log2) with merged LNA block capture probes? I mean this substance: gene78.m0103: merged probe corresponding to the exon 01-exon 03 border (DNA CACAACACTGCCCAGAGGTTCAATCGATAAATATGTGAAGGAAATGCCTG; listed as DNA, chemistry not fully specified)
Out: −0.24

---

Entries and their measured Average duplex melting temp. follow.
- Tested on: yeast HSP78 (YDR258C) sequence
- assay text: Duplex melting temperatures of HSP78 25-mer capture probes (UV spectrophotometer)
- measurement conditions: 25-mer capture probe duplex with complementary target; design PM = perfectly matched, MM = single mismatch; DNA, LNA_T (T) or LNA_TC (TC) substituted
l = locked nucleic acid (LNA); [5mC] = 5-methylcytosine; d = 2'-deoxy (DNA)
API: value field is a number in °C; no unit string.

12734 (DNA CCGATTAAACGACAGACAGTATGCT; sugars from the 5' end llddlldddlddddddlddldldld, [5mC] at 1, 2, 10, 17, 24, backbone not given here) [compound 12734]	70.2
12686 (DNA CCGATTAAACGACAGACAGTATGCT; DNA, backbone not given here) [compound 12686]	57.1
12751 (DNA CCCAACTTTGTGACGTTTAATAAAA; sugars from the 5' end llldddllddlddddlllddldddd, [5mC] at 1, 2, 3, backbone not given here) [compound 12751]	67.6
12769 (DNA ATAAAGCTGGCAATAGGTCTCTTTT; DNA, backbone not given here; further chemistry not fully specified) [compound 12769]	63.6

Consider the additional substance presented here.
In: Can you share its Average duplex melting temp.? I mean this substance: 12821 (DNA AAAACGACAGCATAAGGCTTTCTTC; sugars from the 5' end ddddlddlddldlddddlldlldld, [5mC] at 5, 8, 11, 18, 22, backbone not given here; further chemistry not fully specified) [compound 12821]
Out: 79

---

- Tested on: yeast HSP78 (YDR258C) sequence
- assay text: Duplex melting temperatures of HSP78 25-mer capture probes (UV spectrophotometer)
- measurement conditions: 25-mer capture probe duplex with complementary target; design PM = perfectly matched, MM = single mismatch; DNA, LNA_T (T) or LNA_TC (TC) substituted
l = locked nucleic acid (LNA); [5mC] = 5-methylcytosine; d = 2'-deoxy (DNA)
Entries and their measured Average duplex melting temp. follow.

Recorded Average duplex melting temp., per entry:
12697 (DNA ATAAAGCTGGCATTAGGTCTCTTTT; DNA, backbone not given here) [compound 12697]	58.4 °C
12750 (DNA ATTGACCTCAAATCTTTCTTGGATA; sugars from the 5' end dllddlllldddddlldllldddld, [5mC] at 6, 7, 9, 18, backbone not given here) [compound 12750]	72.2 °C
12746 (DNA TTTTTCGGCCAATCGATCTTGAATT; sugars from the 5' end ldldllddlldddddddldldddld, [5mC] at 6, 9, 10, 18, backbone not given here) [compound 12746]	71 °C
12733 (DNA GACAGCCTCAGTAAATTGGCCACCA; sugars from the 5' end ddlddldldddddddlldddlddld, [5mC] at 3, 6, 21, 24, backbone not given here) [compound 12733]	77.4 °C
12762 (DNA ATAGCAGCAATGGCCTCGTCTTGGC; DNA, backbone not given here; further chemistry not fully specified) [compound 12762]	72.7 °C

In: Report Average duplex melting temp. for 12683 (DNA TTGGAAACATCGCGGTGCGCTTTTT; DNA, backbone not given here) [compound 12683] tested on yeast HSP78 (YDR258C) sequence.
Out: 61.5 °C

In: Then this substance: 12817 (DNA ATAAAGCTGGCAATAGGTCTCTTTT; sugars from the 5' end dlddddllddlddldddllldllld, [5mC] at 7, 11, 19, backbone not given here; further chemistry not fully specified) [compound 12817]
Out: 81.2 °C

In: Then this substance: 12809 (DNA AAATAGCAGCAATGGCCTCGTCTTG; sugars from the 5' end dddlddlddlddlddldlldlddld, [5mC] at 7, 10, 16, 19, backbone not given here; further chemistry not fully specified) [compound 12809]
Out: 86.8 °C

In: Then this substance: 12758 (DNA CCGATTAAACGAGAGACAGTATGCT; DNA, backbone not given here; further chemistry not fully specified) [compound 12758]
Out: 65.4 °C

In: Then this substance: 12717 (DNA TCAGTTAGCCAAACCTTCGCTTCAT; sugars from the 5' end ldddlldddddddddlldddllddd, backbone not given here) [compound 12717]
Out: 69.4 °C

---

- Tested on: yeast HSP78 (YDR258C) sequence
- assay text: Duplex melting temperatures of HSP78 25-mer capture probes (UV spectrophotometer)
- measurement conditions: 25-mer capture probe duplex with complementary target; design PM = perfectly matched, MM = single mismatch; DNA, LNA_T (T) or LNA_TC (TC) substituted
l = locked nucleic acid (LNA); d = 2'-deoxy (DNA)
// n strictly below 70 °C in Average duplex melting temp.; y otherwise

12719 (DNA AGACGTACAGCAACAGAAATAGCAG; sugars from the 5' end d5 l1 d13 l1 d5, backbone not given here) [compound 12719]	n
12779 (DNA TTGGAAACATCGGGGTGCGCTTTTT; sugars from the 5' end lldddddddldddddlddddlllld, backbone not given here; further chemistry not fully specified) [compound 12779]	y

We now examine a further substance.
In: Quick check: does 12703 (DNA CCCAACTTTGTGACGTTTAATAAAA; DNA, backbone not given here) [compound 12703] have Average duplex melting temp. greater than or equal to 70 °C?
Out: n

---

- System: yeast HSP78 (YDR258C) sequence
- assay text: Duplex melting temperatures of HSP78 25-mer capture probes (UV spectrophotometer)
- measurement conditions: 25-mer capture probe duplex with complementary target; design PM = perfectly matched, MM = single mismatch; DNA, LNA_T (T) or LNA_TC (TC) substituted
l = locked nucleic acid (LNA); d = 2'-deoxy (DNA)
Entries and their measured Average duplex melting temp. follow.
API: value field is a number in °C; no unit string.

Recorded Average duplex melting temp., per entry:
12773 (DNA AAAACGACAGCATAAGGCTTTCTTC; DNA, backbone not given here; further chemistry not fully specified) [compound 12773]	64.5
12781 (DNA GACAGCCTCAGTTAATTGGCCACCA; sugars from the 5' end dddddddlddddlddlldddddddd, backbone not given here; further chemistry not fully specified) [compound 12781]	75.4
12808 (DNA GACCTAAGAACATAAAGCTGGCAAT; sugars from the 5' end ddllldddddldlddddllddlddd, all C 5-methyl, backbone not given here; further chemistry not fully specified) [compound 12808]	78.9
12721 (DNA ATAAAGCTGGCAAAAGGTCTCTTTT; sugars from the 5' end dldddddldddddddddldldllld, backbone not given here) [compound 12721]	67.2
12691 (DNA GCAATGGCCTCGACTTGGCCAACGA; DNA, backbone not given here) [compound 12691]	68.5
12684 (DNA GAAACATCGGGGAGCGCTTTTTCAA; DNA, backbone not given here) [compound 12684]	63.8
12696 (DNA TTTGGTAGCACGTCAAGCTTAGTAT; DNA, backbone not given here) [compound 12696]	59.2
12787 (DNA GCAATGGCCTCGTCTTGGCCAACGA; DNA at ACG, LNA at T, backbone not given here; further chemistry not fully specified) [compound 12787]	80.8

In: Report Average duplex melting temp. for 12798 (DNA ATTGACCTCAAAACTTTCTTGGATA; DNA at ACG, LNA at T, backbone not given here; further chemistry not fully specified) [compound 12798] tested on yeast HSP78 (YDR258C) sequence.
Out: 70.2

---

Entries and their measured Average duplex melting temp. follow.
- Tested on: yeast HSP78 (YDR258C) sequence
- assay text: Duplex melting temperatures of HSP78 25-mer capture probes (UV spectrophotometer)
- measurement conditions: 25-mer capture probe duplex with complementary target; design PM = perfectly matched, MM = single mismatch; DNA, LNA_T (T) or LNA_TC (TC) substituted
l = locked nucleic acid (LNA); d = 2'-deoxy (DNA)
API: value field is a number in °C; no unit string.

12709 (DNA GACAGCCTCAGTAAATTGGCCACCA; sugars from the 5' end d7 l1 d7 l2 d8, backbone not given here) [compound 12709]	68.8
12700 (DNA TCAATGGCCTTGGACCATATAATTG; DNA, backbone not given here) [compound 12700]	59.5
12796 (DNA TCAATGGCCTTGCACCATATAATTG; DNA at ACG, LNA at T, backbone not given here; further chemistry not fully specified) [compound 12796]	74
12761 (DNA AAATAGCAGCAATGGCCTCGTCTTG; DNA, backbone not given here; further chemistry not fully specified) [compound 12761]	69.2
12694 (DNA GTTGCCATGGAGATCAAAATCTGTC; DNA, backbone not given here) [compound 12694]	60

Consider the additional substance presented here.
In: Can you share its Average duplex melting temp.? I mean this substance: 12799 (DNA CCCAACTTTGTGTCGTTTAATAAAA; DNA at ACG, LNA at T, backbone not given here; further chemistry not fully specified) [compound 12799]
Out: 75.1
